Dear all, this message contains IC50 results, target or system human liver catechol-O-methyltransferase (COMT) (Homo sapiens).
Give the value in µM but do not write µM after it.

- compound: "O=c1c(O)c(-c2ccc(O)c(O)c2)oc2cc(O)cc(O)c12"
  systemName: "human liver catechol-O-methyltransferase (COMT) (Homo sapiens)"
  unitName: "µM"
  IC50: 1.9

// switching to the query compound
Fill in the recorded IC50 for this compound, with human liver catechol-O-methyltransferase (COMT) (Homo sapiens) as test system: Oc1cc(O)c2c(c1)O[C@H](c1ccc(O)c(O)c1)[C@H](O)C2 [(−)-epicatechin] 10.7

====

procedureSummary: in vivo
testContext: rat, ip, 400 mg/kg
valueType: concentration at 30 min (µM)
Value expressed in µM; do not type the unit.

- compound: "O=c1c(O)c(-c2ccc(O)c(O)c2)oc2cc(O)cc(O)c12 [quercetin]"
  concentration at 30 min, µM: 12.6

Could you tell me which concentration at 30 min is on file for Oc1cc(O)c2c(c1)O[C@H](c1ccc(O)c(O)c1)[C@H](O)C2 [(−)-epicatechin] ? 88.6

Where these numbers come from: paper PMC3618674
